target: GDP-bound KRAS wild-type protein (Homo sapiens); experiment: Binding to KRAS by surface plasmon resonance (SPR), Single Cycle Kinetics; settings: SPR, Single Cycle Kinetics, GDP-bound KRAS wild-type protein; read-out: KRAS KD
Sequence (P01116 whole entry): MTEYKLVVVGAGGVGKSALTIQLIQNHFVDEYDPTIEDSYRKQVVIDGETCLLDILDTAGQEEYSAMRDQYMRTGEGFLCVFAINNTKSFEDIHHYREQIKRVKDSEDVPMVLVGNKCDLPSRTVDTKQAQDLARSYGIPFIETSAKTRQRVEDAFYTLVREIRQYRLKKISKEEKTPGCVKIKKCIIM
For each record, write down the corresponding Kd.
Numbers only, in nM.

Some solved entries appear below for comparison.
{"smiles_text": "CCC[C@H]1C(=O)N[C@@H]([C@@H](C)CC)C(=O)N(C)CC(=O)N(C)[C@H]2C/C=C\\CCN(C2=O)[C@@H](Cc2ccc(C(F)(F)F)cc2)C(=O)N(C)CC(=O)N[C@@H](CCc2cc(F)c(C(F)(F)F)c(F)c2)C(=O)N(C)[C@@H](C)C(=O)NC2(CC(C)(C)C2)C(=O)N(C)[C@@H](C2CCCC2)C(=O)N(C)[C@H](C(=O)N(C)C)CC(=O)N1C", "Kd / nM": 0.72}
{"smiles_text": "CCOC[C@H]1C(=O)N[C@@H]([C@@H](C)CC)C(=O)N(C)CC(=O)N(C)[C@H]2C/C=C\\CCN(C2=O)[C@@H](CC2CCC(F)(F)CC2)C(=O)N(C)CC(=O)N[C@@H](CCc2ccc(C(F)(F)F)c(OC)c2)C(=O)N2C[C@H](OCC)C[C@H]2C(=O)N(C)C2(CCC2)C(=O)N(C)[C@@H](C(CC)CC)C(=O)N(C)[C@H](C(=O)N(C)C)CC(=O)N1C", "Kd / nM": 1.6}

Then there is this molecule:
Request: Kd, test system GDP-bound KRAS wild-type protein (Homo sapiens), entry CC[C@H](C)[C@@H]1NC(=O)[C@H](CC(C)C)N(C)C(=O)C[C@@H](C(=O)N(C)CC)N(C)C(=O)[C@H](C2CCCC2)N(C)C(=O)C2(CCC2)NC(=O)[C@@H]2C[C@H](C)CN2C(=O)[C@H](CCc2ccc(C(F)(F)F)c(OC)c2)NC(=O)CN(C)C(=O)[C@H](Cc2ccc(C)cc2)N2CC/C=C\C[C@@H](C2=O)N(C)C(=O)CN(C)C1=O
0.12
